Origin of the recorded values: ChEMBL document CHEMBL3044766

# Test system: Aspergillus fumigatus
# ASSAY_EXPLANATION: Antifungal activity against Aspergillus fumigatus at 100 ug/ml after 24 hr by disc diffusion method
# Assay type: functional
# MEASUREMENT_CONTEXT: read-out: DIZ

>  <COMPOUND>
Clc1ccccc1C(c1ccccc1)(c1ccccc1)n1ccnc1

>  <zone of inhibition at 100 µg/mL, mm>
21

$$$$
>  <COMPOUND>
CCOC(=O)C1(C(O)c2ccc[nH]2)CO1 (configuration not stated)

>  <zone of inhibition at 100 µg/mL, mm>
10

$$$$
>  <COMPOUND>
COC(=O)C1(C(O)c2cccs2)CO1 (configuration not stated)

>  <zone of inhibition at 100 µg/mL, mm>
12

$$$$
>  <COMPOUND>
CCOC(=O)C1(C(O)c2cccs2)CO1 (configuration not stated)

>  <zone of inhibition at 100 µg/mL, mm>
10

$$$$
>  <COMPOUND>
COC(=O)C1(C(O)c2ccco2)CO1 (configuration not stated)

>  <zone of inhibition at 100 µg/mL, mm>
8

$$$$
>  <COMPOUND>
CCOC(=O)C1(C(O)c2ccco2)CO1 (configuration not stated)

>  <zone of inhibition at 100 µg/mL, mm>
9

$$$$
>  <COMPOUND>
COC(=O)C1(C(O)c2ccc[nH]2)CO1 (configuration not stated)

>  <zone of inhibition at 100 µg/mL, mm>
12

$$$$

---

# System: Candida albicans
# ASSAY_EXPLANATION: Antifungal activity against Candida albicans at 100 ug/ml after 24 hr by disk diffusion method
# Format: functional
# MEASUREMENT_CONTEXT: read-out: DIZ
Examples of compounds with documented zone of inhibition at 100 µg/mL follow.

>  <COMPOUND>
COC(=O)C1(C(O)c2cccs2)CO1 (configuration not stated)

>  <zone of inhibition at 100 µg/mL>
12 mm

$$$$
>  <COMPOUND>
CCOC(=O)C1(C(O)c2ccc[nH]2)CO1 (configuration not stated)

>  <zone of inhibition at 100 µg/mL>
10 mm

$$$$
>  <COMPOUND>
CCOC(=O)C1(C(O)c2cccs2)CO1 (configuration not stated)

>  <zone of inhibition at 100 µg/mL>
9 mm

$$$$
>  <COMPOUND>
COC(=O)C1(C(O)c2ccco2)CO1 (configuration not stated)

>  <zone of inhibition at 100 µg/mL>
7 mm

$$$$
>  <COMPOUND>
COC(=O)C1(C(O)c2ccc[nH]2)CO1 (configuration not stated)

>  <zone of inhibition at 100 µg/mL>
9 mm

$$$$
>  <COMPOUND>
Clc1ccccc1C(c1ccccc1)(c1ccccc1)n1ccnc1

>  <zone of inhibition at 100 µg/mL>
20 mm

$$$$
>  <COMPOUND>
CCOC(=O)C1(C(O)c2ccco2)CO1 (configuration not stated)

>  <zone of inhibition at 100 µg/mL>
8 mm

$$$$
